Just for reference, paper PMC7686308 is where these values come from.

# study target: T1, MC16 (Annexin A1 N-terminal peptide), tetrameric (Homo sapiens)
# T1 chain: MAMVSEFLKQAWFIEC
# test details: QCM
Ends that are not written are not given here.
measured parameter: pKd
Expect pKd as a plain number equal to -log10 of the molar concentration.

Query: Which pKd value belongs to IFLLWQRCRR (not fully specified (residue 8); also: tetramer on 4-arm PEG via Cys) [IF7C(RR) peptide] ?
Response: 6.61
